As shown below, each of these compounds has a reported IC50 value.
test system: RPMI-8226; assay: Cellular RPMI-8226 viability assay (CellTiter-Glo, 72 hours); format: cell-based; details: Homo sapiens

# Compound, IC50
records = [
    ("CC(C)c1cnn2c(NCc3ccccc3-c3ncc4ccccc4n3)nc(N3CCC(N)CC3)nc12 [Compound 77]", "< 1 µM"),
    ("CC(C)c1cnn2c(NCc3ccccc3-n3cc4c(n3)CCCC4)nc(N3CCC(N)CC3)nc12 [Compound 109]", "< 1 µM"),
    ("CC(C)c1cnn2c(NCc3ccccc3-c3cc4cccc(NC(=O)CCCN(C)C)c4[nH]3)nc(N3CCC(N)CC3)nc12 [Compound 143]", "1 to 10 µM"),
    ("CC(C)c1cnn2c(NCc3ccccc3N3Cc4ccccc4C3)nc(N3CCC(N)CC3)nc12 [Compound 128]", "< 1 µM"),
    ("CC(C)c1cnn2c(NCc3ccccc3-c3nccc4ccccc34)nc(N3CCC(N)CC3)nc12 [Compound 79]", "1 to 10 µM"),
    ("CC(C)c1cnn2c(NCc3ccccc3-c3nc4ccccc4[nH]3)nc(N3CCC(N)CC3)nc12 [Compound 98]", "< 1 µM"),
]

--- query ---
Exercise: Item under review: CC(C)c1cnn2c(NCc3ccccc3-c3ccc4[nH]c(=O)[nH]c4c3)nc(N3CCC(N)CC3)nc12 [Compound 140] . Reported IC50?
Key: 1 to 10 µM

###

biological target: CDK1/Cyclin B (Homo sapiens); construct: purchased Invitrogen PR4768C; test: Enzymatic assay for CDK1 (FRET based LANCE Ultra kinase assay); assay type: biochemical; details: read-out: CDK1 enzymatic activity (IC50 range)
Sequence (P06493 whole entry): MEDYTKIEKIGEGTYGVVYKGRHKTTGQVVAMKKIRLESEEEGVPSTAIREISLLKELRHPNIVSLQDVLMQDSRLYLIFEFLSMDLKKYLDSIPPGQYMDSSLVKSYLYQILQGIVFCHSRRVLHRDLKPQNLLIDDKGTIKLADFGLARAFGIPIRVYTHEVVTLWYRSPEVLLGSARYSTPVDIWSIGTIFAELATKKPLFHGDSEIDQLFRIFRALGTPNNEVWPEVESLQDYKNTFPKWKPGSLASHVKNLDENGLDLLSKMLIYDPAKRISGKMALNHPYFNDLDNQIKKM
Sequence (P14635 whole entry partner): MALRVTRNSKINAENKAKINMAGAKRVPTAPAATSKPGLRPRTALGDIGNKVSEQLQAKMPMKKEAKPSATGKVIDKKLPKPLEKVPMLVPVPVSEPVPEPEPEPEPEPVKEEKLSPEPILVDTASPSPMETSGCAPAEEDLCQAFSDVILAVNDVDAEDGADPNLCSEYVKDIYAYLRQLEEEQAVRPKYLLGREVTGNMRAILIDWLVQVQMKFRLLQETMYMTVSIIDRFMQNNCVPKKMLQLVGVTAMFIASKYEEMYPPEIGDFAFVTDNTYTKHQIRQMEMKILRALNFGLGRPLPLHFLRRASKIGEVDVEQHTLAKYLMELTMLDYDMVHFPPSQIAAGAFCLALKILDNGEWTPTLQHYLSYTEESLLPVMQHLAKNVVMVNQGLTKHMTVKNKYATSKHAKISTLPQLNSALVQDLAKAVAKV
As shown below, each of these compounds has a reported IC50 value.

The cases that follow already have their IC50 on record.
# Compound, IC50
measured = [
    ("CC(C)c1cnn2c(NCc3ccccc3-c3ccc4ccccc4n3)cc(OCC3CCNCC3)nc12", "> 1000 nM"),
    ("CC(C)c1cnn2c(NCc3ccccc3-c3cc4cccc(NC(=O)C5CC5)c4[nH]3)nc(N3CCC(N)CC3)nc12", "100 to 1000 nM"),
    ("CC(C)c1cnn2c(NCc3ccccc3-c3ccc4ccccc4n3)nc(NCCC(O)CN)nc12 (racemic)", "> 1000 nM"),
]

Exercise: Item under review: `CC(C)c1cnn2c(NCc3ccccc3-c3cc4ccccc4[nH]3)nc(N3CCC(C(N)=O)CC3)nc12` . Reported IC50?
Key: > 1000 nM

Exercise: Item under review: `CC(C)c1cnn2c(NCc3c(Cl)cccc3-n3ccc(C(=O)N4CCNCC4)n3)nc(N3CCC(N)CC3)nc12` . Reported IC50?
Key: > 1000 nM

Exercise: Item under review: `CC(C)c1cnn2c(NCc3ccccc3-n3cc4cc(C(=O)N5CCCC5)ccc4n3)nc(N3CCC(N)CC3)nc12` . Reported IC50?
Key: > 1000 nM

Exercise: Item under review: `CC(C)c1cnn2c(NCc3ccccc3-n3cc(N4CCOCC4)cn3)nc(N3CCC(N)CC3)nc12` . Reported IC50?
Key: > 1000 nM

Exercise: Item under review: `CC(C)c1cnn2c(NCc3ccccc3-c3cnc4ccccc4n3)nc(N3CCC(N)CC3)nc12` . Reported IC50?
Key: 100 to 1000 nM

Exercise: Item under review: `CC(C)c1cnn2c(NCc3ccccc3-c3cn4ccccc4n3)nc(N3CCC(N)CC3)nc12` . Reported IC50?
Key: 100 to 1000 nM

Exercise: Item under review: `CC(C)c1cnn2c(NCc3ccccc3-c3ccc4[nH]cnc4c3)nc(N3CCC(N)CC3)nc12` . Reported IC50?
Key: 100 to 1000 nM

Exercise: Item under review: `CC(C)c1cnn2c(NCc3ccccc3-n3cc4c(n3)CCOC4)nc(N3CCC(N)CC3)nc12` . Reported IC50?
Key: > 1000 nM

These measurements were taken from patent US11945822B2.
